# TARGET DESC: 72 kDa type IV collagenase (Homo sapiens, UniProt P08253)
# Sequence (P08253 whole entry): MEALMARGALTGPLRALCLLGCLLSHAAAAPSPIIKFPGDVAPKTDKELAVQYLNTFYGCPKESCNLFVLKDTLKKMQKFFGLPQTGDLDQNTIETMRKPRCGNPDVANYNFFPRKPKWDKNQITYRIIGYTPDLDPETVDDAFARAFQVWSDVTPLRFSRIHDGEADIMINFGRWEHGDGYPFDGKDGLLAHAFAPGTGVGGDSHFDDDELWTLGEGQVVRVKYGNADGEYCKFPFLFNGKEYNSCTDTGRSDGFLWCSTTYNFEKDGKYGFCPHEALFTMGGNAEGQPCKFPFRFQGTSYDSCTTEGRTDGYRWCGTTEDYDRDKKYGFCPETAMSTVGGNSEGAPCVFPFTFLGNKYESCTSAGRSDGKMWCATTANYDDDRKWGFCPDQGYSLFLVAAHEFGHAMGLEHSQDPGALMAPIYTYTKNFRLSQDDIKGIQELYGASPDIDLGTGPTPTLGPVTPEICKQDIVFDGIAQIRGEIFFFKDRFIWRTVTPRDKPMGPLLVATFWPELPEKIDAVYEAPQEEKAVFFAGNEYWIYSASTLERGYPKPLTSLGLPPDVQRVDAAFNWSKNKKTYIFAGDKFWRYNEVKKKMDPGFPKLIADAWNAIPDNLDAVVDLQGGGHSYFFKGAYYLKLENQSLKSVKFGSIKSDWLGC
# TEST METHOD NOTES: Inhibition of human recombinant MMP2 using Mca-Pro-Leu-Gly-Leu-Dpa-Ala-Arg-NH2 as substrate preincubated for 60 mins followed by substrate addition by fluorimetric analysis
Reported IC50 values follow for various compounds
REPORTED ENDPOINT: IC50 (nM)

SMILES REPR: CNC(=O)[C@H](Cc1c[nH]c2ccccc12)NC(=O)[C@@H](CC(=O)Nc1ccccc1NC(C)=O)CC(C)C
UNITS TEXT: nM
MEASUREMENT QUALIFIER: >
EXPERIMENTAL RESULT: 10000

SMILES REPR: CNC(=O)[C@H](Cc1c[nH]c2ccccc12)NC(=O)[C@@H](CC(=O)Nc1ccc(C(=O)c2ccccc2)cc1N)CC(C)C
UNITS TEXT: nM
MEASUREMENT QUALIFIER: >
EXPERIMENTAL RESULT: 10000

SMILES REPR: CNC(=O)[C@H](Cc1c[nH]c2ccccc12)NC(=O)[C@@H](CC(=O)Nc1ccc(Br)cc1N)CC(C)C
UNITS TEXT: nM
MEASUREMENT QUALIFIER: =
EXPERIMENTAL RESULT: 21.8

SMILES REPR: CNC(=O)[C@H](Cc1c[nH]c2ccccc12)NC(=O)[C@@H](CC(=O)Nc1ccccc1N)CC(C)C
UNITS TEXT: nM
MEASUREMENT QUALIFIER: =
EXPERIMENTAL RESULT: 0.19

SMILES REPR: CNC(=O)[C@H](Cc1c[nH]c2ccccc12)NC(=O)[C@@H](CC(=O)Nc1cccc(N)c1)CC(C)C
UNITS TEXT: nM
MEASUREMENT QUALIFIER: =
EXPERIMENTAL RESULT: 2.05

SMILES REPR: CNC(=O)[C@H](Cc1c[nH]c2ccccc12)NC(=O)[C@@H](CC(=O)Nc1ccc(F)cc1N)CC(C)C
UNITS TEXT: nM
MEASUREMENT QUALIFIER: =
EXPERIMENTAL RESULT: 2.2

SMILES REPR: CNC(=O)[C@H](Cc1c[nH]c2ccccc12)NC(=O)[C@@H](CC(=O)Nc1ccc(C(F)(F)F)cc1N)CC(C)C
UNITS TEXT: nM
MEASUREMENT QUALIFIER: >
EXPERIMENTAL RESULT: 10000

SMILES REPR: CNC(=O)[C@H](Cc1c[nH]c2ccccc12)NC(=O)[C@@H](CC(=O)Nc1ccc(C)cc1N)CC(C)C
UNITS TEXT: nM
MEASUREMENT QUALIFIER: >
EXPERIMENTAL RESULT: 10000
